Tested on: GAK
particulars: concentration: 1 μM, replicates: in singlicate; n = 1;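 further: KINOMEscan kinase panel screen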
Rule: %Inh under 3% gives 0 (no), otherwise 1 (yes).

Field: example entries. Status: answers known.
compound="C[C@H]1CC[C@@H](C(=O)Nc2ccccc2)CN1c1cc(-c2ccc3c(N)n[nH]c3c2)nc(N)n1 [GSK2283293]" class_assignment="0 (no)"
compound="Nc1nc(-c2cccnc2)c(-c2ccnc3ccccc23)s1 [GW684083]" class_assignment="1 (yes)"
compound=Fc1ccc(-c2ncn(CCCNCc3ccccc3)c2-c2ccncc2)cc1 class_assignment="0 (no)"
compound="FC(F)(F)c1cc(Nc2nccc(-c3c(-c4ccc(Cl)cc4)nn4ncccc34)n2)ccc1Cl [GW829351]" class_assignment="0 (no)"
compound="Cc1ccc(C)c(NC(=O)NCCNc2ccnc(Nc3ccc(F)cc3)n2)c1 [GSK1379878]" class_assignment="0 (no)"

Given `CN1c2ccc(-c3ccc(C(=O)NCCO)cc3)cc2-c2[nH]ncc2S1(=O)=O` , state whether its %Inh is at least 3%. 1 (yes)

# check: %Inh of O=C(c1ccc(-c2cc(-c3c[nH]nc3-c3ccccn3)ccn2)cc1)N1CCCC1 [GW792479] is greater than or equal to 3% 1 (yes)

Given the entry O=C(Nc1n[nH]c2nc(-c3ccco3)c(Br)cc12)c1ccc(CN2CCCC2)cc1.O=C(O)[C@H](O)[C@@H](O)C(=O)O [SB-742352] , answer whether its %Inh meets or surpasses 3%. 0 (no)

* * *

Listed here: items and their measured %Inh.
Test system: JAK3(JH1domain-catalytic)
particulars: concentration: 1 μM, replicates: in singlicate; n = 1
Give just the number in %; leave the unit off.

compound=COc1ccc(-c2nc3n(c2-c2ccncc2)CCC3)cc1 readout_label=%Inh measured_value=0
compound=COc1cc2c(Nc3cccc(NC(=O)c4ccccc4)c3)ncnc2cc1OCCCN1CCOCC1 readout_label=%Inh measured_value=0
compound=CN1c2ccc(-c3ccc(C(=O)NCCO)cc3)cc2-c2[nH]ncc2S1(=O)=O readout_label=%Inh measured_value=97.2
compound=O=C(Nc1ccccc1)Nc1ccc(Oc2ccc3nccn3n2)cc1 readout_label=%Inh measured_value=0

Could you now look at the following compound, please?
Fill in the blank: the reported %Inh of COc1ccc(Nc2nccc(N3CCC(NC(=O)c4cccc(NC(C)=O)c4)C3)n2)cc1 (centres unmarked) is ____. 0

* * *

Tested on: BRSK2
particulars: concentration: 1 μM, replicates: in singlicate; n = 1
readout.label: %Inh (%)
State just the number; it will be interpreted in %.

Here are 4 molecules together with their reported answers.
record_smiles=Cc1cccc(-c2nc(Nc3ccc4[nH]nnc4c3)c3ccccc3n2)n1 experimental_system=BRSK2 readout_label=%Inh measured_value=0
record_smiles=CCC(CC)(CC)n1cnc2c(N)ncnc21 experimental_system=BRSK2 readout_label=%Inh measured_value=15
record_smiles=Cl.c1ccc(Cn2ccc3cc(Nc4ncnc5ccccc45)ccc32)cc1 experimental_system=BRSK2 readout_label=%Inh measured_value=20
record_smiles=Cc1ccc(O)cc1Nc1cc(C(F)(F)F)nc2ccc(-c3ccncc3)cc12 experimental_system=BRSK2 readout_label=%Inh measured_value=0

Attention now turns to another entry.
# query: %Inh of entry `Fc1cccc(COc2ccc(Nc3ncnc4nn5ccccc5c34)cc2Cl)c1` 0

* * *

Test system: PRKCH
particulars: concentration: 1 μM, replicates: in singlicate; n = 1
readout.label: %Inh

Worked set:
record_smiles=Fc1ccc(Nc2nccc(-c3c(-c4ccc(Cl)cc4)nn4ncccc34)n2)cc1F measured_value=0%
record_smiles=CC(C)(C)c1ccc(-n2cnc3c(N)ncnc32)cc1 measured_value=29%
record_smiles=Cl.Cn1ccc(-c2cccc(Nc3ccnc4cc(-c5nccs5)ccc34)c2)n1 measured_value=14%
record_smiles=Fc1cccc(COc2ccc(Nc3ncnc4nn5ccccc5c34)cc2Cl)c1 measured_value=0%

Okay, now this molecule:
I have this molecule here, `Nc1nccc2scc(-c3ccc4c(c3)CCN4C(=O)Cc3cc(F)ccc3F)c12` , and I need its recorded %Inh. 16%

* * *

This section presents compounds with their documented %Inh values.
Tested on: p38-beta
Construct: gene MAPK11
particulars: concentration: 1 μM, replicates: in singlicate; n = 1
The reply must contain the numeric value and, after it, the unit.

Request the reported %Inh associated with `C[C@H]1CC[C@@H](C(=O)Nc2ccccc2)CN1c1cc(-c2ccc3c(N)n[nH]c3c2)nc(N)n1` 0%

Given `CN1c2ccc(-c3ccc(C(=O)NCCO)cc3)cc2-c2[nH]ncc2S1(=O)=O` , state its recorded %Inh. 4%

Which value of %Inh has been reported for `Fc1cccc(COc2ccc(Nc3ncnc4cc[nH]c34)cc2Cl)c1` in the records? 13%

Which %Inh is reported for this compound? `Oc1ccc2ncnc(Nc3ccc(OCc4ccccc4)cc3)c2c1` 0%

* * *

System: TXK
particulars: concentration: 1 μM, replicates: in singlicate; n = 1
Below is a list of entries, each paired with its recorded %Inh value.
Reply numerically in %, unit not repeated.

Solved entries (count: 5):
compound="Fc1cccc(COc2ccc(Nc3ncnc4nn5ccccc5c34)cc2Cl)c1 [GW689066]" measured_value=3
compound="CSc1nn2c(=O)cc(N3CCOCC3)nc2n1Cc1cccc(Cl)c1Cl [GSK2347225]" measured_value=0
compound="CSc1ccc(NC2=C(c3ccccc3Cl)C(=O)NC2=O)cc1 [SB-342411]" measured_value=3
compound="FC(F)(F)c1cc(Nc2nccc(-c3c(-c4ccc(Cl)cc4)nn4ncccc34)n2)ccc1Cl [GW829351]" measured_value=0
compound="CCC(CC)(CC)n1cnc2c(N)ncnc21 [SKF-97620]" measured_value=0

Fill blank: measured %Inh of the compound `O=C(CCO)NCCn1ccc2ncnc(Nc3ccc(Oc4cccc(C(F)(F)F)c4)c(Cl)c3)c21` is ____. 0

Give its %Inh value. Item: COc1ccc(-c2oc3ncnc(N)c3c2-c2ccc(OC)cc2)cc1 [SB-589132] 11

%Inh lookup needed for FC(F)(F)c1ccc(-c2cc(-c3c[nH]nc3-c3ccccn3)ccn2)cc1 [GW599550] , thanks. 0

Fill blank: measured %Inh of the compound `C[C@@H]1CCN(C(=O)CO)C[C@@H]1N(C)c1ncnc2[nH]ccc12` is ____. 7

* * *

System: OSR1
Construct: gene OXSR1
particulars: concentration: 1 μM, replicates: in singlicate; n = 1
readout.label: %Inh (%)
Write the answer as a number in %, unit excluded.

record_smiles=Cl.O=S(=O)(c1cccc(F)c1)c1ccc(Nc2ncnc3cc(Br)sc23)cc1Cl experimental_system=OSR1 measured_value=0
record_smiles=FC(F)(F)c1cc(Nc2nccc(-c3c(-c4ccc(Cl)cc4)nn4ncccc34)n2)ccc1Cl experimental_system=OSR1 measured_value=0
record_smiles=Fc1ccc(-c2ncn(CCCNCc3ccccc3)c2-c2ccncc2)cc1 experimental_system=OSR1 measured_value=19

%Inh for `FC(F)(F)c1ccc(-c2cc(-c3c[nH]nc3-c3ccccn3)ccn2)cc1` ? 0

Record request: %Inh value, item `O=C(CCO)NCCn1ccc2ncnc(Nc3ccc(Oc4cccc(C(F)(F)F)c4)c(Cl)c3)c21` 0

Returns the measured %Inh for the input compound. Input: `O=C(Nc1n[nH]c2nc(-c3ccco3)c(Br)cc12)c1ccc(CN2CCCC2)cc1.O=C(O)[C@H](O)[C@@H](O)C(=O)O` 0

Look up %Inh for this compound: `CCC(CC)(CC)n1cnc2c(N)ncnc21` 19

Fill in the blank: the reported %Inh of `COC(=O)c1cccc(NC(=O)NCCNc2ccnc(Nc3ccc(F)cc3)n2)c1` is ____. 4

// %Inh lookup, key: `Fc1cccc(COc2ccc(Nc3ncnc4nn5ccccc5c34)cc2Cl)c1` 3

* * *

Test system: NEK4
particulars: concentration: 1 μM, replicates: in singlicate; n = 1
readout.label: %Inh (%)
Lab book: enter the figure in %, no units written.

molecule=Cn1ccc2ncnc(Nc3ccc(Oc4cccc(Cl)c4)c(Cl)c3)c21 readout_label=%Inh measured_value=11
molecule="Clc1cccc(-c2nc(Nc3ccncc3)c3ccccc3n2)c1 [GW873004]" readout_label=%Inh measured_value=0
molecule="FC(F)(F)c1cc(Nc2nccc(-c3c(-c4ccc(Cl)cc4)nn4ncccc34)n2)ccc1Cl [GW829351]" readout_label=%Inh measured_value=0
molecule="Cl.Cl.c1ccc(-c2cc3ccncc3cc2OC2CCNCC2)cc1 [GSK1122999]" readout_label=%Inh measured_value=2

For CC(C)(C)OC(=O)NC1CCCN(c2cc(-c3ccc4c(N)n[nH]c4c3)nc(N)n2)C1 (stereo not drawn) [GSK2286096] , what is its reported %Inh? 13

What does the record list as %Inh for `Cn1ccc2ncnc(Oc3ccc(NC(=O)Nc4cccnc4)c(Cl)c3)c21` ? 0

Suppose we examine the molecule NC(=O)c1sc(-n2cnc3ccccc32)cc1OCc1ccccc1F [GSK1024306] ; what %Inh value has been reported? 0

Recorded %Inh of FC(F)(F)c1ccc(-c2nn3ncccc3c2-c2ccnc(Nc3cccc(C(F)(F)F)c3)n2)cc1 [GW828205] , please. 0

For the molecule `Fc1ccc(-c2ncn(CCCNCc3ccccc3)c2-c2ccncc2)cc1` , what %Inh is on record? 7
